System: COLO 205 colon
Assay protocol: NCI-60 one-dose screen, 48 h
Setup conditions: 10 µM unless noted
About 83,000 compounds went through this panel and 20% of them were active in at least one assay; those are over-represented in the sample as a whole. Active and inactive are the calls of the source. The calls were made as follows: active = growth percent below 10; inactive = the rest.
# output must be one of label 1 (active), label 0 (inactive)

See these solved cases before continuing.
Compound | Study target | Label value
O=C1OC(Oc2ccccc2)(c2ccccc2)c2ccccc21 (stereo unspecified) | COLO 205 colon | label 0
COc1cc2c(cc1OC)C(CC1(O)CCCCC1)N(S(=O)(=O)c1ccc(C)cc1)CC2 (stereo unspecified) | COLO 205 colon | label 1
CC(NC(=O)Oc1cccc2ccccc12)c1ccccc1 (stereo unspecified) | COLO 205 colon | label 0
CCC(=O)Nc1cc2c(cc1Cl)-c1ccccc1C2 | COLO 205 colon | label 0
CCOC(=O)/C=C1/SC(=Nc2ccc(C#N)cc2)N(Cc2ccco2)C1=O | COLO 205 colon | label 0

Hi, sorry to bother you, what did the test record for `N#Cc1c(-c2ccccc2)cc(-c2ccccc2)n(CCCCC(=O)O)c1=O` ?
label 0

====

System: A549/ATCC NSCLC
Assay protocol: NCI-60 one-dose screen, 48 h (100 = growth as untreated, 0 = no growth, -100 = all killed)
Setup conditions: 10 µM unless noted
Compounds without any hit were thinned out: in the full panel of roughly 83,000, 20% have a hit. Calls of active or inactive are those of the source. The calls were made as follows: active = growth percent below 10; inactive = the rest.
Recorded metric: growth

# example entries with known answers
Compound | Study target | Recorded measurement
NS(=O)(=O)c1ccc(-n2ncc3c(SCc4ccccc4)ncnc32)cc1 | A549/ATCC NSCLC | 80.8% (inactive)
COc1cccc(/C=C2\Cc3ccccc3C2=O)c1 | A549/ATCC NSCLC | 87% (inactive)
Cn1c(N2N=C(c3ccc(Cl)cc3)CC2c2ccccc2)nc(-c2ccccc2)c(C#N)c1=O (stereo not given) | A549/ATCC NSCLC | 64.8% (inactive)
O=Cc1ncc(-c2ccc(C(F)(F)F)cc2)c(NC2CCCCCC2)n1 | A549/ATCC NSCLC | -79.2% [100 µM] (active)
CCN(CC)c1ccc(C(=C2C=CC(=[N+](CC)Cc3cccc(S(=O)(=O)O)c3)C=C2)c2ccc(N(CC)Cc3cccc(S(=O)(=O)O)c3)cc2)cc1 | A549/ATCC NSCLC | -4.01% (active)

growth lookup needed for `O=C1/C(=C\c2coc3ccccc3c2=O)c2ccccc2N1c1c(Cl)cccc1Cl` , thanks.
26.6% (inactive)

growth lookup needed for COc1ccc(C2=NN(C=O)C(c3cccc(Nc4ccnc5cc(Cl)ccc45)c3)C2)cc1 (stereo not given) , thanks.
30.2% (inactive)

growth lookup needed for `COc1cccc(N2CCN(c3cccc(C)n3)CC2)c1` , thanks.
95.6% (inactive)

growth lookup needed for `O=C(Nc1nc2ccc(OC(F)(F)F)cc2s1)c1ccc(F)cc1` , thanks.
14.5% (inactive)

growth lookup needed for CC1(C)CC2(C)CC(=O)C1C(C(=O)O)C2C(=O)O (stereo not given) , thanks.
109% (inactive)

====

Tested on: A498 renal
Assay protocol: NCI-60 one-dose screen, 48 h
Setup conditions: 10 µM unless noted
This is part of a sample that, as a whole, favours compounds with a hit. Of some 83,000 tested, about 20% had one in any assay. The source made the active and inactive calls. Rule for the calls: active = growth percent below 10; inactive = the rest.
# output must be one of active, inactive

Hi, sorry to bother you, what did the test record for Clc1ccc2c(c1)C(Br)c1cc(Cl)cc(Cl)c1-2 (stereo not given) ?
inactive

Hi, sorry to bother you, what did the test record for `COC(=O)[C@H](Cc1cn(C)cn1)NC(=O)[C@H](C)NC(=O)Nc1cc(C(F)(F)F)cc(C(F)(F)F)c1` ?
active

Hi, sorry to bother you, what did the test record for `O=C1N=C(N2CCOCC2)S/C1=C\c1cn(-c2ccccc2)nc1-c1ccccc1` ?
inactive

====

Recorded growth for the following molecules
Tested on: COLO 205 colon
Assay protocol: NCI-60 one-dose screen, 48 h (100 = growth as untreated, 0 = no growth, -100 = all killed)
Setup conditions: 10 µM unless noted
About 83,000 compounds went through this panel and 20% of them were active in at least one assay; those are over-represented in the sample as a whole.
State the answer as a number, implicitly in %.

Molecule | Study target | Recorded metric | Unit annotation | Recorded measurement
CCCCCCCCCCCCCCCCNC(=O)Nc1ccc2ccccc2c1 | COLO 205 colon | growth | % | 103
CC1CC=CCC1C1OCC(C)(C)CO1 (stereo not given) | COLO 205 colon | growth | % | 111
O=C(N/N=C/c1ccc(Cl)cc1Cl)c1ccccc1Nc1cccc(C(F)(F)F)c1 | COLO 205 colon | growth | % | 109

growth lookup needed for `O=C1NCCc2c1noc2-c1ccccc1` , thanks.
103

growth lookup needed for `CC(=O)Nc1ccc(C(=O)COc2ccc(/C=C3\CCc4ccccc4C3=O)cc2)cc1` , thanks.
143

growth lookup needed for `CCc1nn2c(-c3ccc(Cl)cc3C)c(-c3cc(OC)c(OC)c(OC)c3)nc2s1` , thanks.
81.2

====

Tested on: NCI-H460 lung
Assay protocol: NCI-60 one-dose screen, 48 h (100 = growth as untreated, 0 = no growth, -100 = all killed)
Setup conditions: 10 µM unless noted
This is part of a sample that, as a whole, favours compounds with a hit. Of some 83,000 tested, about 20% had one in any assay.
Recorded growth for the following compounds
State the answer as a number, implicitly in %.

Compound | Recorded measurement
CCOC(=O)c1cnc2c(C)cc(C)cc2c1NCCCN(C)C | 10.1
C(=C1c2ccccc2-c2ccccc21)c1ccncc1 | 33.7
COc1ccc2cc(-c3nc4ccccc4[nH]3)c(=O)oc2c1 | 101
C/C(=C\CCc1ccoc1)CC/C=C(\C)CCCN1CCSCC1 | 10.1
CC(NNC(=S)N1CCCCCC1)c1ccc2ccccc2n1 (stereo unspecified) | 12.5

Note: attention shifts to another entry.
growth lookup needed for `O=C(NCCNC(=O)Oc1cccc2ccccc12)Oc1cccc2ccccc12` , thanks.
106

====

Test system: SF-268 CNS
Assay protocol: NCI-60 one-dose screen, 48 h (100 = growth as untreated, 0 = no growth, -100 = all killed)
Setup conditions: 10 µM unless noted
This is part of a sample that, as a whole, favours compounds with a hit. Of some 83,000 tested, about 20% had one in any assay.
Recorded growth for the following compounds
State the answer as a number, implicitly in %.

# example entries with known answers
Compound | growth, %
Cc1ccccc1NC(=O)NC(CC(N)=O)c1ccc2c(c1)nc(-c1cccc(Oc3ccc(C(C)(C)C)cc3)c1)n2CCCN1CCCCC1C (stereo not given) | 46.7
Clc1ccc2[nH]cc(-c3cncn3CCc3ccccc3)c2c1 | 46.3
N#Cc1ccc(-c2csc(Nc3ccc4nc5n(c(=O)c4c3)CCC5)n2)cc1 | 106
N/C(=N\C(N)=N\c1nc2ccccc2s1)c1ccnc(Cl)c1 | 61.5
NS(=O)(=O)c1ccc(-n2ncc3c(SCc4ccccc4)ncnc32)cc1 | 96.2

growth lookup needed for `c1ccc(-c2nc(Nc3nccnn3)c3ccccc3n2)cc1` , thanks.
98

growth lookup needed for `COc1cccc(-c2nc3cc(NC(=O)c4ccc(Cl)c(C#N)c4)ccc3o2)c1` , thanks.
-5.11

growth lookup needed for `CCCCN=C(N)c1ccc(OCCSCCOc2ccc(C(N)=NCCCC)cc2)cc1` , thanks.
35.6

growth lookup needed for `CCCc1n(Cc2ccc3ccccc3c2)cc[n+]1Cc1ccc2ccccc2c1` , thanks.
7.55

growth lookup needed for `CC(=O)Nc1c(Cl)cc2c(c1Cl)Cc1cc([N+](=O)[O-])ccc1-2` , thanks.
101

====

Test system: HT29 colon
Assay protocol: NCI-60 one-dose screen, 48 h (100 = growth as untreated, 0 = no growth, -100 = all killed)
Setup conditions: 10 µM unless noted
This is part of a sample that, as a whole, favours compounds with a hit. Of some 83,000 tested, about 20% had one in any assay.
Recorded growth for the following compounds
State the answer as a number, implicitly in %.

# example entries with known answers
Compound | Recorded metric | Recorded measurement
CC[C@@H](C)/C=C(C)/C=C/C(=O)c1c(O)c(-c2ccc(O)cc2)cn(OC2CC(=O)CCC(C)OC(=O)CC2O)c1=O (stereo not given in full) | growth | 29.5
Cc1csc(C#Cc2cncc(O)c2)n1 | growth | 110
O=C(COc1cccc(/C=C2\Cc3ccccc3C2=O)c1)c1ccc(Cl)cc1 | growth | 69.6
CC1Cc2ccccc2N1C(=O)c1ccc(C(=O)c2ccccc2)cc1 (stereo not given) | growth | 89.4

Note: attention shifts to another entry.
growth lookup needed for `C(=C1c2ccccc2-c2ccccc21)c1ccccn1` , thanks.
17

====

System: CCRF-CEM leukemia
Assay protocol: NCI-60 one-dose screen, 48 h
Setup conditions: 10 µM unless noted
The panel holds about 83,000 compounds, 20% with a hit somewhere; the sample as a whole holds those more often. Activity calls are given as the source filed them. Rule for the calls: active = growth percent below 10; inactive = the rest.
# output must be one of 1 (yes) for active, 0 (no) for inactive

Molecule | Label value
O=C1NCCc2c1noc2-c1ccccc1 | 0 (no)

Hi, sorry to bother you, what did the test record for O=CN1N=C(c2ccc(Nc3ccnc4cc(Cl)ccc34)cc2)CC1c1ccc(Cl)cc1 (stereo not given) ?
1 (yes)

Hi, sorry to bother you, what did the test record for `Cc1cccc2nnc(-c3ccccc3)n12` ?
0 (no)

Hi, sorry to bother you, what did the test record for `O=c1[nH]cc(Nc2cc(Cl)c3nonc3c2[N+](=O)[O-])c(=O)[nH]1` ?
0 (no)

Hi, sorry to bother you, what did the test record for `CCN(CC)c1ccc(N=C2C=CC(=O)C=C2NC(C)=O)cc1` ?
0 (no)

Hi, sorry to bother you, what did the test record for `O=C(/C=C/c1ccc(C(F)(F)F)cc1)c1ccc(Nc2nc(NCCO)nc(NCCO)n2)cc1` ?
1 (yes)

Hi, sorry to bother you, what did the test record for CC(C)CC1NC(=O)C(CCCN)NC(=O)C(C(C)C)NC(=O)C2CCCN2C(=O)C(Cc2ccccc2)NC(=O)C(CC(C)C)NC(=O)C(CCCN)NC(=O)C(C(C)C)NC(=O)C2CCCN2C(=O)C(Cc2ccccc2)NC1=O (stereo not given) ?
1 (yes)

Hi, sorry to bother you, what did the test record for `COc1ccc(NC(=O)c2ccccc2-c2ccccc2)c(C(N)=O)c1` ?
0 (no)

Hi, sorry to bother you, what did the test record for `O=C1NC(=O)/C(=C\c2ccco2)S1` ?
0 (no)

Hi, sorry to bother you, what did the test record for `O=C(CNC(=O)c1cccc2ccccc12)Nc1ccccc1Oc1ccc(O)cc1` ?
0 (no)
